Recorded pKi by entry
Target: Peptidyl-prolyl cis-trans isomerase FKBP1A (Homo sapiens, UniProt P62942)
Sequence (P62942 whole entry): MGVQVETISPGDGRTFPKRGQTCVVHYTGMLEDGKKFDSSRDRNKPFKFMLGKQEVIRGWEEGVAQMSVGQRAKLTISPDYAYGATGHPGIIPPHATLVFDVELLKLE
pKi: −log10 of the molar value.

molecule	pKi
CCO[C@@H]1C[C@@H]2CC[C@@H](C)[C@@](O)(O2)C(=O)C(=O)N2CCCC[C@H]2C(=O)O[C@H]([C@H](C)C[C@@H]2CC[C@@H](O)[C@H](OC)C2)CC(=O)[C@H](C)/C=C(\C)[C@@H](O)[C@@H](OC)C(=O)[C@H](C)C[C@H](C)/C=C/C=C/C=C/1C	8.46
COc1ccc([C@@H]2C[C@@H]3CC[C@@H](C)[C@@](O)(O3)C(=O)C(=O)N3CCCC[C@H]3C(=O)O[C@H]([C@H](C)C[C@@H]3CC[C@@H](O)[C@H](OC)C3)CC(=O)[C@H](C)/C=C(\C)[C@@H](O)[C@@H](OC)C(=O)[C@H](C)C[C@H](C)/C=C/C=C/C=C/2C)c(OC)c1	8.05
CO[C@@H]1C[C@H](C[C@@H](C)[C@@H]2CC(=O)[C@H](C)/C=C(\C)[C@@H](O)[C@@H](OC)C(=O)[C@H](C)C[C@H](C)/C=C/C=C/C=C(\C)[C@H](OCc3ccccc3)C[C@@H]3CC[C@@H](C)[C@@](O)(O3)C(=O)C(=O)N3CCCC[C@H]3C(=O)O2)CC[C@H]1O [Rapamycin C-7, analog 14a]	8.30
CO[C@@H]1C[C@H](C[C@@H](C)[C@@H]2CC(=O)[C@H](C)/C=C(\C)[C@@H](O)[C@@H](OC)C(=O)[C@H](C)C[C@H](C)/C=C/C=C/C=C(\C)[C@H](SC)C[C@@H]3CC[C@@H](C)[C@@](O)(O3)C(=O)C(=O)N3CCCC[C@H]3C(=O)O2)CC[C@H]1O	9.00
CO[C@@H]1C[C@H](C[C@@H](C)[C@@H]2CC(=O)[C@H](C)/C=C(\C)[C@@H](O)[C@@H](OC)C(=O)[C@H](C)C[C@H](C)/C=C/C=C/C=C(\C)[C@H](OCc3ccc(N=[N+]=[N-])c(I)c3)C[C@@H]3CC[C@@H](C)[C@@](O)(O3)C(=O)C(=O)N3CCCC[C@H]3C(=O)O2)CC[C@H]1O [Rapamycin C-7, analog 17a]	7.52
CO[C@@H]1C[C@H](C[C@@H](C)[C@@H]2CC(=O)[C@H](C)/C=C(\C)[C@@H](O)[C@@H](OC)C(=O)[C@H](C)C[C@H](C)/C=C/C=C/C=C(\C)[C@H](OCc3ccc(Cl)cc3)C[C@@H]3CC[C@@H](C)[C@@](O)(O3)C(=O)C(=O)N3CCCC[C@H]3C(=O)O2)CC[C@H]1O [Rapamycin C-7, analog 16a]	9.00
